B1: TPR t1 (parent)
chain: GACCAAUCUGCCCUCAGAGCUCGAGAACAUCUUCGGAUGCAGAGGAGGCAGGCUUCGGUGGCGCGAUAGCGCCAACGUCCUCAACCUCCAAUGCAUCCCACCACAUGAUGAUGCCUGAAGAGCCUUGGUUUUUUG

Variants of: B1
assay method text: polymerase ribozyme fitness, log enrichment relative to wild type (log ratio); higher = more active; in vitro selection for triplet polymerase activity
recorded endpoint: polymerase ribozyme fitness (log ratio)

Which polymerase ribozyme fitness (log ratio) is reported for this variant? GACCAAUCUGCCCUCAGAGCUCGAGAACAUCUUCGGAUGCAGAGGAGCUAGGCUUCGGAGGCGCGAUAGCGCCAACGUCCUCAACCUCCAAUGCAUCCCACCACAUGAUGAUGCCUGAAGAGCCUUGGUUUUUUG [G48C C49U U59A] -1.34

Which polymerase ribozyme fitness (log ratio) is reported for this variant? GACCAAUCUGACCUCAGAGCUCGAGAACAUCUUCGGAUGGAAAGGAGGCAGGCUUCGGUGGCGCGAUAGCACCAACGUCCUCAACCUCCAAUGCAUCCCACCACAUGAUGAUGCCUGAAGAGCCUUGGUUUUUUG [C11A C40G G42A G71A] -4.67

Which polymerase ribozyme fitness (log ratio) is reported for this variant? GACCAAUCUGCCCUCAGAGCUCGAGAACAUCUUCGGAUGCAGAGGAGGCAGGCUUCGGUGGCGCGAUAGCGCCAACGUCCUCAAUCUCCAAUGCAUCCCCCCACAUGAUGAUGCCUGAAGAGCCUUGGUUUUUUG [C85U A100C] -1.76

Which polymerase ribozyme fitness (log ratio) is reported for this variant? GACCAAUCUGCCCUCAGAGCUCGAGAACAUCUUCGGAUGCAGAGGAGGCAGGCUUCGGUGGCGCGAUAGCGCCAACGUCCUCAACCUCCAAUGCAUCACACCACAUGAUGAUGCCUGAAAAGCCUUGGUUUUUUG [C98A G120A] -3.18

Which polymerase ribozyme fitness (log ratio) is reported for this variant? GACCAAUCUGCCCUCUGAGCUCGAGAACAUCUUCGGAUGCAGAGGAGGCAGGCUUCGGGGGCGCGAUAACGCCAACGUCCUCAACCUCCAAUGCACCCCACCACAUGAUGAUGCCUGAAGAGCCUUGGUUUUUUG [A16U U59G G69A U96C] -4.5

Which polymerase ribozyme fitness (log ratio) is reported for this variant? GACCAAUCUGCCCUCAGAGCUGGAGAACAUCUUCGGAUGCAGAGGAGGCAGGCUUCGGUGGCGCGAUAGCGCCAACGUCAUCAACCUCCAAUGCAUCCCAUCACAUGAUGAUGCCUGAAGAGCAUUGGUUUUUUG [C22G C80A C101U C124A] -3.81

Which polymerase ribozyme fitness (log ratio) is reported for this variant? GACCAAUAUGCCCUCAGAGCUCGAGAACAUCUUCGGAUGCAGAGGAGGCAGGCUUCGGUGGCCCGAUAGCGCCAACGUCCUCAACAUCCAAUCCAUCCCACCACAUGAUGAUGCCUGAAGAGCCUUGGUUUUUUG [C8A G63C C86A G93C] -3.35

Which polymerase ribozyme fitness (log ratio) is reported for this variant? GACCAAUCUGCCCUCAGAGCUCGAGAACAUCUUGGGAUGCAGAGGAGGCAGGCUUCGGUGGCGCGAUAGCGCCUACGUCCUCAACCUCCCAUGCAUCCCACCACAUGAUGAGGCCUGAAGAGCCUUGGUUUUUUG [C34G A74U A90C U112G] -6.64
